# Tested on: SF-268
# assay summary: NCI tumour cell line growth inhibition, 48 h
Activity calls are given as the source filed them. Cut-off read from the data, not from the text of the source: active = GI50 up to about 1.1 µM and inactive = higher.
parameter: GI50

Task item: Requested field: GI50. Item: CCOC(=O)c1nc2cc(C(F)(F)F)ccc2nc1Nc1ccc(F)cc1
Reply: > 100 µM (inactive)

Task item: Same for CCCCCCCCCCCCCP(=O)(NCC(N)=O)OCC (stereo unspecified)
Reply: 19.1 µM (inactive)

Task item: Check CC(C)c1ccc2nc3ccc(C(=O)NCCN4CCN(c5ccccc5)CC4)cn3c(=O)c2c1 too.
Reply: > 100 µM (inactive)

Task item: Same read-out for O=C1Nc2ccccc2/C1=N/Nc1ccccc1Cl ?
Reply: 29.8 µM (inactive)

Task item: Try this compound too: O=[N+]([O-])c1ccc(-c2cn(-c3ccc(Cl)cc3)cn2)cc1
Reply: 14.2 µM (inactive)

Task item: Queued: Clc1c(C(Cl)(Cl)Cl)nsc1N1CCCCC1
Reply: 34 µM (inactive)

---

# Test system: K562
# assay summary: NCI tumour cell line growth inhibition, 48 h
The source made the active and inactive calls. Cut-off read from the data, not from the text of the source: active = GI50 up to about 1.1 µM and inactive = higher.
Give one outcome, nothing more. List: True = active, False = inactive

Task item: How did this test come out for O=C1c2ccccc2CC12Cc1cc3c(cc1C2)CCC3 ?
Reply: False

Task item: # repeat for [N-]=[N+]=C1C(=O)C2CC3CC(C2)CC1C3
Reply: False

Task item: And then CC(C)=CCC/C(C)=C/Cc1c2c(c3oc(-c4ccc(O)c(O)c4)c(O)c(=O)c3c1O)C=CC(C)(C)O2 , what is it?
Reply: False

Task item: Same read-out for COc1ccc2nc3c([N+](=O)[O-])ccc4c3c(c2c1)N=CN4CCCN(C)C ?
Reply: True

---

# Tested on: EKVX
# assay summary: NCI tumour cell line growth inhibition, 48 h
Active and inactive are the calls of the source. No stated cut-off is given here; in the data, active = GI50 up to about 1.1 µM and inactive = higher.
parameter: GI50

Task item: Recorded GI50 of COC(O)C(=O)c1c2c(cc3c1CCC3)CCCC2 (stereo unspecified) , please.
Reply: 16.7 µM (inactive)

Task item: Try this compound too: Nc1ccccc1NC(=O)c1ccc(CNC(=O)OCc2cccnc2)cc1
Reply: 1.72 µM (inactive)

Task item: Field entry: COc1ccc(C2C=C(c3ccc(C)cc3)N(c3ccc(OC)cc3[N+](=O)[O-])C3C(=O)OC(=O)C23)c(OC)c1 (stereo unspecified)
Reply: 28.2 µM (inactive)

Task item: Another compound to check: C=C1C[C@H](O)[C@H]2C(C[Se]c3ccccc3)C(=O)O[C@@H]2[C@H]2[C@H](C)C(O)C[C@@H]12 (stereo partly specified)
Reply: 33.7 µM (inactive)

Task item: Further, for COc1ccc2c(c1)CCCN1CCc3ccccc3C21 (stereo unspecified) ?
Reply: 76.4 µM (inactive)

Task item: Proceed to CC(C)N(C(=O)C12C3C4C1C1C2C3C41C(=O)N(C(C)C)C(C)C)C(C)C (stereo unspecified)
Reply: > 50 µM (inactive)

---

# System: DMS-114
# assay summary: NCI tumour cell line growth inhibition, 48 h
Calls of active or inactive are those of the source. No stated cut-off is given here; in the data, active = GI50 up to about 1.1 µM and inactive = higher.
parameter: GI50

Task item: Entry COC(=O)c1cc(Cl)ccc1NC(=O)C1CCCCC1 , system DMS-114: what GI50 was measured?
Reply: > 100 µM (inactive)

Task item: Same question for CCC1(O)C(=O)OCc2c1cc1n(c2=O)Cc2cc3ccc(CO)cc3nc2-1 (stereo unspecified) please.
Reply: 1.82 µM (inactive)

Task item: Next compound up: CCC1=C(CC)C1(C#N)[N+](=O)[O-]
Reply: > 100 µM (inactive)

Task item: Now try Cc1nc2cc(/N=N/c3c(O)ccc4ccccc34)ccc2[nH]1 .
Reply: 25.8 µM (inactive)

Task item: Would you kindly repeat that for OC(c1ccccc1Br)(c1ccccc1Br)C(F)(F)F ?
Reply: 20.8 µM (inactive)

Task item: What about CC1(C)Cc2c(oc3ncnc(N)c23)CS1 ?
Reply: > 100 µM (inactive)

---

# System: OVCAR-8
# assay summary: NCI tumour cell line growth inhibition, 48 h
Calls of active or inactive are those of the source. No stated cut-off is given here; in the data, active = GI50 up to about 1.1 µM and inactive = higher. Non-standard residues stand in square brackets, D forms with d. Residues, ends and D or L forms follow the SMILES beside them. *: point of attachment. Ac5c = NC1(C(=O)O)CCCC1; Cbz = O=C(OCc1ccccc1)*; Boc = CC(C)(C)OC(=O)*; tBu = CC(C)(C)*
Give one outcome, nothing more. List: Y = active, N = inactive

Task item: Returns: the outcome recorded for CC(=O)N(C(C)=O)c1c(N)n(C)c(=O)[nH]c1=O in this assay.
Reply: N

Task item: // repeat for Cc1ccc(-c2cs/c(=N\c3ccccc3)n2NC(=O)c2ccncc2)cc1 and report
Reply: N

Task item: Another molecule to look at: NC(CCCCCP(=O)(O)O)C(=O)O (stereo not given) [AP-7]
Reply: N

Task item: Follow-up item: CC(=O)/C=C/C1=C(C)CCCC1(C)CC(C)C (stereo not given)
Reply: N

Task item: Now try COC(=O)CCC(NC(=S)N/N=C(\C)c1cccs1)C(=O)OC (stereo not given) .
Reply: N

Task item: What do we get for CN(C)CCCN1c2ccccc2CCc2cc([N+](=O)[O-])ccc21 ?
Reply: N

Task item: Let us now turn to Cc1nc2cc(/N=N/c3c(O)ccc4ccccc34)ccc2[nH]1
Reply: N

Task item: Now try CC(=O)OCC1OC(n2cc(F)c(=O)[nH]c2=O)C(OC(C)=O)C1OC(C)=O (stereo not given) .
Reply: N

Task item: Next molecule: O=C1/C(=C/c2ccccc2)CN(C(=O)Oc2ccccc2)C/C1=C\c1ccccc1
Reply: N

Task item: // query: CC(C)(C)N/N=C(/Cc1nc2c3c(ccc2nc1O)C(=O)c1ccccc1C3=O)C(=O)NC1=C(Cl)C(=O)c2ccccc2C1=O
Reply: N

Task item: Quick one: COCC1OC(OC2C3=C(C(C)C)CCC3(C)/C=C3\C(CCC3(O)COC)C(C)C2O)C(O)C2OC3OC12OC3(C)C1CO1 (stereo not given)
Reply: N

Task item: Then this molecule: Cc1cc2nc(C=C(C(F)(F)F)C(F)(F)F)sc2cc1C
Reply: Y

Task item: Okay, and COC(=O)C1(NC(=O)C(Cc2ccccc2)NC(=O)C(NC(=O)C(CCCCNC(=O)OC(C)(C)C)NC(=O)C(Cc2c[nH]c3ccccc23)NC(=O)C(Cc2ccccc2)NC(=O)OCc2ccccc2)C(C)OC(C)(C)C)CCCC1 (stereo not given) (Cbz-FWK(Boc)T(tBu)F[Ac5c]-OMe; configuration not given here) ?
Reply: N

Task item: For Cc1cc(C)c2c(c1)CC1(Cc3ccc(C)c(C)c3C1=O)C2=O (stereo not given) then?
Reply: N

Task item: Check CC(=O)OC(C)(C)/C=C/C(=O)[C@](C)(O)[C@H]1[C@H](O)C[C@@]2(C)[C@@H]3CC=C4[C@@H](C=C(O)C(=O)C4(C)C)[C@]3(C)C(=O)C[C@]12C [CUCURBITACIN E] too.
Reply: Y

---

# Test system: CCRF-CEM
# assay summary: NCI tumour cell line growth inhibition, 48 h
The source made the active and inactive calls. No stated cut-off is given here; in the data, active = GI50 up to about 1.1 µM and inactive = higher.
Respond only with the outcome that fits, drawn from active, inactive

Task item: Look up the recorded call for O=C(/C=C\c1ccccc1-c1ccccc1)c1ccccc1 in this test.
Reply: inactive

Task item: Query C/C(=N\NC(=O)c1ccncc1)c1ccccc1Cl next
Reply: inactive

Task item: Now this one: Cn1c(=O)c2c(ncn2Cc2ccc(O)c([N+](=O)[O-])c2)n(C)c1=O
Reply: inactive

Task item: Cool, now COC1=C(N)C(=O)c2nc(C)ccc2C1=O
Reply: inactive

Task item: What do we get for C/C(=N\NC(=S)N1CCN(C2CCCCCC2)CC1)c1ccccn1 ?
Reply: active

Task item: Thanks! And O=C1OC[C@@H]2Cc3c([nH]c4ccccc34)[C@@H](c3cc(O)c(O)c(O)c3)N12 ?
Reply: inactive

---

# Tested on: SN12C
# assay summary: NCI tumour cell line growth inhibition, 48 h
Activity calls are given as the source filed them. No stated cut-off is given here; in the data, active = GI50 up to about 1.1 µM and inactive = higher.
Outcome field: choose from active, inactive

Task item: Recorded call for O=C(NCCCCNCCCNC(=O)C(F)(F)F)C(F)(F)F ?
Reply: inactive

Task item: Request: CSc1c(C(=O)Nc2ccccc2)c(N)nn1-c1ccccc1
Reply: inactive

Task item: Input CC(=O)C1C(=O)C(=O)N(c2ccc([N+](=O)[O-])cc2)C1=O (stereo not given)
Reply: inactive

Task item: Next: N#C/C(=C\c1cc(F)cc(F)c1)c1ccccn1
Reply: inactive

Task item: Try C/C(=N\NC(=S)N1CCN(C2CCCCCC2)CC1)c1ccccn1 next.
Reply: active

Task item: Cool, now CC(=O)NC(Cc1ccc(OP(=O)(OCc2ccc([N+](=O)[O-])o2)N(C)CCCCCl)cc1)C(=O)NC(C)c1ccc(OCC2CCCCC2)c(C(N)=O)c1 (stereo not given)
Reply: inactive

Task item: Same thing, different compound: Nc1ccc(C(=O)N/C(=C\c2ccc3c(c2)OCO3)c2nc3c(O)nc(S)nc3[nH]2)cc1
Reply: inactive

Task item: Entry to check: CCN(CC)CCNc1n[n+]([O-])c2ccccc2[n+]1[O-]
Reply: inactive

Task item: Now try COc1cc2ccccc2c2cc([N+](=O)[O-])oc12 .
Reply: active

Task item: Field entry: [N-]=[N+]=C1C(=O)C2CC3CC(C2)CC1C3
Reply: inactive

Reference for the values: ChEMBL document CHEMBL1201862
